Target or test system: T. gondii ME49Luc in IFN-y HeLa, luciferase, 72 h
Assay name: T. gondii growth inhibition with IFN-gamma, dose response, cell-based, ME49Luc, HeLa, luciferase, 72 h (AID 1259418)
Results filed as inconclusive are left out.
AC50 by entry:

Worked examples follow.
{"columns": ["Molecule", "Target or test system", "Measurement type", "Value"],
 "data": [
  ["COc1ccc(-c2nc(N3CCC4(CC3)OCCO4)c3ccccc3n2)cc1", "T. gondii ME49Luc in IFN-y HeLa, luciferase, 72 h", "AC50", "20.1 µM"],
  ["Cc1ccc(S(=O)(=O)N2CCC3(CC2)NCCN=C3NCc2ccc(C(F)(F)F)cc2)c(C)c1", "T. gondii ME49Luc in IFN-y HeLa, luciferase, 72 h", "AC50", "9.08 µM"],
  ["CCC[C@@]1(CCc2ccccc2)CC(=O)C([C@H](CC)c2cccc(NS(=O)(=O)c3ccc(C(F)(F)F)cn3)c2)C(=O)O1 (some centres undefined)", "T. gondii ME49Luc in IFN-y HeLa, luciferase, 72 h", "AC50", "17.3 µM"],
  ["Cc1cccc(NC(=O)COc2nc(C)nc3ccccc23)c1", "T. gondii ME49Luc in IFN-y HeLa, luciferase, 72 h", "AC50", "32 µM"]
]}

Now turn to the next molecule.
Task: What measured AC50 goes with NCCCCCCCCCCNS(=O)(=O)c1cccc2c(Cl)cccc12 ?
Output: 21.2 µM

----------
Target or test system: T. gondii ME49Luc in IFN-y HeLa, luciferase, 72 h
Assay name: T. gondii growth inhibition with IFN-gamma, dose response, cell-based, ME49Luc, HeLa, luciferase, 72 h (AID 1259418)
Records with an inconclusive call do not appear.
Measurement type: AC50

// known answers, use as guide
{"columns": ["Compound structure", "Measurement type", "Value"],
 "data": [
  ["C[C@@H]1CN([C@H](C)CO)C(=O)Cc2cc(NC(=O)C3CCCCC3)ccc2O[C@H]1CN(C)Cc1ccc(Cl)c(Cl)c1", "AC50", "17.4 µM"],
  ["Nc1ncnc2c1ncn2[C@@H]1O[C@H](C[C@@H](N)CC[C@H](N)C(=O)O)[C@@H](O)[C@H]1O", "AC50", "0.907 µM"],
  ["COc1ccccc1N(Cc1nc(-c2cccc(C)c2)oc1C)S(=O)(=O)c1ccccc1", "AC50", "13.3 µM"],
  ["CCc1ccc(S(=O)(=O)N2CCC3(CC2)NCCN=C3NCc2cc(F)cc(F)c2)cc1", "AC50", "6.6 µM"],
  ["COc1ccc(-c2ccc3c(c2)[C@H]2[C@H](CCN2C(=O)c2cccc(F)c2)[C@H](CO)N3)cc1", "AC50", "16 µM"],
  ["CCOc1ccc(-c2nc(CN(c3ccccc3OC)S(=O)(=O)c3cccs3)c(C)o2)cc1", "AC50", "8.23 µM"],
  ["CC(C)Cc1ccc(S(=O)(=O)N2CCC3(CC2)NCCN=C3NCc2ccc3c(c2)OCO3)cc1", "AC50", "5.76 µM"]
]}

Task: Which AC50 is reported for this compound? COc1ccc(N(Cc2nc(-c3ccc(OC)c(OC)c3)oc2C)S(=O)(=O)c2ccccc2)cc1
Output: 9.25 µM

----------
Target or test system: T. gondii ME49Luc in IFN-y HeLa, luciferase, 72 h
Assay name: T. gondii growth inhibition with IFN-gamma, dose response, cell-based, ME49Luc, HeLa, luciferase, 72 h (AID 1259418)
Results filed as inconclusive are left out. Active and inactive are the calls of the source.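 The calls were made as follows: active = fitted half-maximal concentration of signal decrease at or below twice the sample's top tested concentration; inconclusive = flat curve between -70 and -30 percent, or poor fit; inactive = flat within 30 percent, signal rise, or potency above limit.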
Choose the fitting class; nothing outside active, inactive is accepted.

Below, 3 compounds whose answers are already recorded.
{"columns": ["Compound", "Target or test system", "Classification"],
 "data": [
  ["O=C(C[C@H]1CC[C@H]2[C@@H](COC[C@@H](O)CN2Cc2cc(F)ccc2F)O1)NCc1ccc(Oc2ccccc2)cc1", "T. gondii ME49Luc in IFN-y HeLa, luciferase, 72 h", "active"],
  ["OC[C@@H]1[C@@H](c2ccc(-c3cccc(F)c3)cc2)[C@@H]2CN(Cc3cncnc3)CCCCN12", "T. gondii ME49Luc in IFN-y HeLa, luciferase, 72 h", "active"],
  ["CC(C)C#Cc1ccc([C@H]2[C@@H](C#N)N(C(=O)c3cccc(F)c3)[C@H]2CO)cc1", "T. gondii ME49Luc in IFN-y HeLa, luciferase, 72 h", "inactive"]
]}

Task: Could you check what this test reported for CCCCNC(=O)CCC1N=C2c3ccccc3N=C(SCc3ccccc3Cl)N2C1=O (stereo not drawn) ?
Output: active

Task: What call does the record list for N#C[C@H]1[C@@H](c2ccc(C3=CCCCC3)cc2)[C@@H](CO)N1C(=O)Nc1ccccc1F ?
Output: active

Task: Assay result, entry COc1ccc(-c2nc(CN(c3ccccc3OC)S(=O)(=O)c3cccs3)c(C)o2)cc1 — outcome?
Output: active

Task: How was CCc1ccc(S(=O)(=O)N2CCC3(CC2)NCCN=C3NCc2ccc(F)cc2)cc1 classified in this test?
Output: active

Task: How was CC(=O)N(C)C1(c2ccccc2)CCN(CCC[C@]2(c3ccc(Cl)c(Cl)c3)CCCN(C(=O)c3ccccc3)C2)CC1 classified in this test?
Output: active

Task: Answer briefly: the call reported for O=C(CC1Nc2c3ccccc3nc(=S)n2C1=O)N1CCN(c2ccccc2F)CC1 (stereo not drawn) in this assay.
Output: active

Task: Could you kindly confirm the outcome this assay logged for O=C(Nc1cccc(F)c1)N1CCCCN2[C@H](CO)[C@@H](c3ccc(C#Cc4cccnc4)cc3)[C@@H]2C1 ?
Output: active

Task: // param item: CC(=O)O.CC(=O)O.[Cl][Pt+2][Cl].[NH-]C1CCCCC1.[NH2-] ; yields the recorded call
Output: active

----------
Target or test system: T. gondii ME49Luc in IFN-y HeLa, luciferase, 72 h
Assay name: T. gondii growth inhibition with IFN-gamma, dose response, cell-based, ME49Luc, HeLa, luciferase, 72 h (AID 1259418)
Records with an inconclusive call do not appear. The source made the active and inactive calls.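 How the source made its calls: active means fitted half-maximal concentration of signal decrease at or below twice the sample's top tested concentration; inconclusive means flat curve between -70 and -30 percent, or poor fit; inactive means flat within 30 percent, signal rise, or potency above limit.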
Output constraint: value belongs to active, inactive

Illustrative cases are given below, each with its answer.
{"columns": ["Compound", "Classification"],
 "data": [
  ["O=S(=O)(c1ccc(Cl)s1)N1CCC2(CC1)NCCN=C2NCc1cc(F)cc(F)c1", "active"],
  ["CC(C)C#Cc1ccc([C@@H]2[C@H](CO)N3C(=O)CN(S(=O)(=O)c4ccccc4)C[C@@H]23)cc1", "inactive"],
  ["CCOc1ccc(-c2nc(CN3CCN(C(=O)Nc4ccc(Cl)cc4)CC3)c(C)o2)cc1", "active"],
  ["COc1cc([C@@H]2c3cc4c(cc3C(OC3O[C@@H]5COC(C)O[C@H]5[C@H](O)[C@H]3O)C3COC(=O)[C@@H]32)OCO4)cc(OC)c1O (some centres undefined)", "inactive"]
]}

Task: Recorded test outcome, item COc1cccc(NC(=O)N2CC(=O)N3[C@H](CO)[C@@H](c4ccc(C#CCC5CCCC5)cc4)[C@H]3C2)c1
Output: inactive

Task: How did this test come out for O=C(CCC1N=C2c3ccccc3N=C(SCc3ccc(Cl)cc3)N2C1=O)NCc1cccs1 (centres undefined) ?
Output: active

----------
Target or test system: T. gondii ME49Luc in IFN-y HeLa, luciferase, 72 h
Assay name: T. gondii growth inhibition with IFN-gamma, dose response, cell-based, ME49Luc, HeLa, luciferase, 72 h (AID 1259418)
Records with an inconclusive call do not appear. The source made the active and inactive calls.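 How the source made its calls: active means fitted half-maximal concentration of signal decrease at or below twice the sample's top tested concentration; inconclusive means flat curve between -70 and -30 percent, or poor fit; inactive means flat within 30 percent, signal rise, or potency above limit.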
Give your call using only these classes: 1.0 = active, 0.0 = inactive

Recorded results for 5 molecules are shown here.
{"columns": ["Molecule", "Classification"],
 "data": [
  ["CCc1nc(OCC(=O)NCc2ccc(SC)cc2)c2ccccc2n1", 0.0],
  ["CCc1nc(OCC(=O)Nc2ccccc2)c2ccccc2n1", 1.0],
  ["COc1ccccc1C(=O)N1CCC2(CC1)Nc1cc(F)ccc1-n1cccc12", 0.0],
  ["CN(C)C(=O)c1ccc(-c2ccc3c(c2)[C@H]2[C@H](CCN2C(=O)C2CCCC2)[C@@H](CO)N3C)cc1", 1.0],
  ["CCOC(=O)c1nn(Cc2ccccc2)c2c1CN(C(=O)CN1CC(c3ccccc3)CC1=O)CC2 (centres undefined)", 0.0]
]}

Field: next molecule
Task: Tell me the assay call for COc1ccc(S(=O)(=O)N2CSC[C@@H]2C(=O)NCCc2csc(-c3ccccc3)n2)cc1 please.
Output: 1.0

----------
Target or test system: T. gondii ME49Luc in IFN-y HeLa, luciferase, 72 h
Assay name: T. gondii growth inhibition with IFN-gamma, dose response, cell-based, ME49Luc, HeLa, luciferase, 72 h (AID 1259418)
Inconclusive results are not listed. Calls of active or inactive are those of the source.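 How the source made its calls: active means fitted half-maximal concentration of signal decrease at or below twice the sample's top tested concentration; inconclusive means flat curve between -70 and -30 percent, or poor fit; inactive means flat within 30 percent, signal rise, or potency above limit.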
Please answer using one outcome listed in active, inactive

Check out these entries, answers already filled in.
{"columns": ["Compound", "Classification"],
 "data": [
  ["O=C(Nc1ccccc1)c1ncn2c1CN(CC1CC1)S(=O)(=O)c1ccccc1-2", "active"],
  ["CCOc1ccc(-c2nc(CN(c3ccccc3OC)S(=O)(=O)c3ccccc3)c(C)o2)cc1", "active"],
  ["Cc1cccc(-c2ccc(C3[C@@H]4CN(Cc5cccc(F)c5)C[C@H]3N4)cc2)c1 (stereo not given in full)", "active"],
  ["COc1ccc(-n2nnc3c(N4CCN(C(=O)C(=O)c5c[nH]c6ccccc56)CC4)ncnc32)cc1", "active"]
]}

Task: Query: recorded result category for O=C(CCC1N=C2c3ccccc3N=C(SCc3cc(=O)n4cc(Cl)ccc4n3)N2C1=O)NC1CCCCC1 (stereo not given) in this test
Output: inactive
